These measurements were taken from PubChem BioAssay (NCI).

# System: MDA-MB-435 melanoma
# measurement description: NCI-60 one-dose screen, 48 h (100 = growth as untreated, 0 = no growth, -100 = all killed)
# conditions: 10 µM unless noted
About 83,000 compounds went through this panel and 20% of them were active in at least one assay; those are over-represented in the sample as a whole.
Quick reference: growth of the listed items.
assay readout: growth (%)

>>> df
                                    molecule  experimental_result
 0  Fc1ccc(-c2nc(Nc3ccc(-c4nc5ccccc5[nH]4)cc3)nc(N3CCOCC3)n2)cc1                -86.1
 1  COc1cc(/C=C/C(=O)c2ccc(F)cc2)ccc1OCCCCCOc1cc2c(cc1OC)C(=O)N1CCCC1C=N2 (stereo unspecified)                -87.5
 2  CC(C)[C@]12O[C@H]1[C@@H]1O[C@]13[C@]1(O[C@H]1C[C@H]1C4=C(CC[C@@]13C)C(=O)OC4)[C@@H]2OC(=O)CN(C)C                -76.4
 3                   S=c1[nH]nc2sc3ccccc3n12                  118
 4  O=C1c2ccccc2C(=O)c2c1cccc2-n1nnc2ccccc21                  121
 5  COc1ccc(C2CC(c3cccc(Nc4ccnc5cc(Cl)ccc45)c3)=NN2C=O)cc1 (stereo unspecified)                  -36
 6  COc1ccc2c(c1)C(=O)c1c-2c(OCCCN(C)C)nc2cc(Br)ccc12                 90.2
 7  O=C1OC(c2ccc(-c3ccccc3)cc2)=C/C1=C/c1cccs1                   99
 8  COc1ccc(/C=N/NC(=O)c2ccc(S(C)(=O)=O)cc2)cc1OC                  109
 9  CSc1ccc2c(c1)N(CCC1CCCCN1C)c1ccccc1S2 (stereo unspecified)                 42.6
10  Cn1cnc([N+](=O)[O-])c1S(=O)(=O)Oc1ccc(Cl)cc1                 78.8
11  Cc1c(C(N)=O)sc2nc(SCC(=O)Nc3ccc(Cl)cc3)n(-c3ccccc3)c(=O)c12                  112
12  Cc1c(C)c(N2C(=O)C=CC2=O)c(C)c(C)c1N1C(=O)C=CC1=O                  102
13  CSc1nnc(C2=CC(=O)c3ccccc3C2=O)n1-c1ccccc1                 96.7
14  CCCCc1nc(Cl)c(CO)n1Cc1ccc(-c2ccccc2-c2nn[nH]n2)cc1                 96.5
15     CCCCCCCC/C=C/CCCCCCCC1=NC(C)(C)CN1CCO                -31.9
16  c1ccc2cc(C[n+]3ccn(CCCCCCCn4cc[n+](Cc5ccc6ccccc6c5)c4)c3)ccc2c1                 32.7
17  COc1cc(/C=C/C(=O)N2CCN(C(=O)/C=C/c3ccccc3)CC2)cc(OC)c1OC                  111
18  O=C(NCCc1ccccc1)C1CCC(=O)N1Cc1ccc(Br)cc1 (stereo unspecified)                  110
19  CCOC(=O)C1C(=O)OC2CCCCC21 (stereo unspecified)                  114
20           O=C(/C=C/c1ccccc1Cl)c1ccc(O)cc1                 25.1
